- System: delta opioid receptor (CHO-hδ cell membranes) (Homo sapiens, UniProt P41143)
- Sequence (P41143 whole entry): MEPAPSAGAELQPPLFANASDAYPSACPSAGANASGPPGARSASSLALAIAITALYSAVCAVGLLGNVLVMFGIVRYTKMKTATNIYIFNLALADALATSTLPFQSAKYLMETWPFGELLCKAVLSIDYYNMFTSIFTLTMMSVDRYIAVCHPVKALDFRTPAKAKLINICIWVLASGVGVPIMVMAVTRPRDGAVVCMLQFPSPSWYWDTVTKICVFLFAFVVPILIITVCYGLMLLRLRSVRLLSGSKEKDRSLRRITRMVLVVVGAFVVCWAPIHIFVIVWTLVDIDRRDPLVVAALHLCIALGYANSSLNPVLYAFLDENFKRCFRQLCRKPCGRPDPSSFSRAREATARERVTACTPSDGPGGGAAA
- Assay name: Delta Opioid Receptor Functional Assay: [35S]GTPγS Binding in CHO-hδ Cell Membranes, Version 1
- Experimental setup: read-out: DOR GTP-binding Assay_v1 EC50
Readout kind: pEC50
Answers are plain numbers, as −log10 of the molar value.

Smiles text	System	pEC50
Cc1cc(O)cc(C)c1C[C@H](N)C(=O)N(Cc1nc(-c2ccccc2)c[nH]1)C(C)C	delta opioid receptor (CHO-hδ cell membranes) (Homo sapiens, UniProt P41143)	6.72
Cc1cc(O)cc(C)c1C[C@H](N)C(=O)N(C)[C@@H](CC(C)C)c1nc(-c2ccccc2)c[nH]1	delta opioid receptor (CHO-hδ cell membranes) (Homo sapiens, UniProt P41143)	7.70
Cc1cc(O)cc(C)c1C[C@H](N)C(=O)N(Cc1nc(-c2ccc(F)cc2)c(C)[nH]1)C(C)C	delta opioid receptor (CHO-hδ cell membranes) (Homo sapiens, UniProt P41143)	7.68

// batch mode: one pEC50 value per listed entry
1. CC(C)N(C(=O)[C@@H](N)Cc1ccc(O)cc1)[C@@H](C)c1nc(-c2ccccc2)c[nH]1
2. C[C@@H](c1nc(-c2ccccc2)c[nH]1)N(C)C(=O)[C@@H](N)Cc1ccc(C(N)=O)cc1
3. C[C@@H](c1nc(-c2ccccc2)c[nH]1)N(Cc1ccccc1)C(=O)[C@@H](N)Cc1ccc(O)cc1
4. Cc1cc(O)cc(C)c1C[C@H](N)C(=O)N(C)[C@@H](C)c1nc(Cc2ccccc2)c[nH]1

5.66
5.80
5.45
7.49

// batch mode: one pEC50 value per listed entry
1. Cc1cc(O)cc(C)c1C[C@H](N)C(=O)N(C)Cc1nc(-c2ccccc2)c[nH]1
2. Cc1cc(C(N)=O)cc(C)c1C[C@H](N)C(=O)N(Cc1ccccc1)[C@@H](C)c1nc(-c2ccccc2)c[nH]1
3. Cc1cc(O)cc(C)c1C[C@H](N)C(=O)N(Cc1ccccc1)[C@@H](C)c1nc(-c2ccccc2)c[nH]1
4. CCN(C(=O)[C@@H](N)Cc1c(C)cc(O)cc1C)[C@@H](C)c1nc(-c2ccccc2)c[nH]1
5. Cc1cc(C(N)=O)cc(C)c1C[C@H](N)C(=O)N(C)[C@@H](C)c1nc(-c2ccccc2)c[nH]1

6.66
7.46
7.70
7.80
7.62

// batch mode: one pEC50 value per listed entry
1. Cc1ccccc1-c1nc(CN(C(=O)[C@@H](N)Cc2c(C)cc(O)cc2C)C(C)C)[nH]c1C
2. Cc1cc(O)cc(C)c1C[C@H](N)C(=O)N(Cc1nc(-c2ccccc2)c[nH]1)CC1CC1
3. Cc1cc(O)cc(C)c1C[C@H](N)C(=O)N(Cc1nc(-c2ccc(C(F)(F)F)cc2)c(C)[nH]1)C(C)C

1. 6.64
2. 7.12
3. 7.36

----------
For each of the compounds below, state its pKi.
- System: human delta subtype 2 opioid receptor (Homo sapiens, UniProt P41143)
- Sequence (P41143 whole entry): as above
- Assay name: Human Delta Opioid Receptor Binding Assay (CHO membranes, 3H-Naltrindole)
- Experimental setup: read-out: hKi δ
Numbers only, as −log10 of the molar value.

Example entries and their recorded answers appear below.
Smiles text	Readout kind	Numeric result
Cc1cc(O)cc(C)c1C[C@H](N)C(=O)N(Cc1nc(-c2cc(Cl)cc(Cl)c2)c(C)[nH]1)C(C)C	pKi	6.60
Cc1cc(O)cc(C)c1C[C@H](N)C(=O)N(Cc1ccc(C(=O)O)cc1)[C@@H](C)c1nc(-c2ccccc2)c[nH]1	pKi	9.02

Notebook: pull reported pKi for human delta subtype 2 opioid receptor (Homo sapiens, UniProt P41143), entry Cc1cc(O)cc(C)c1C[C@H](N)C(=O)N(Cc1nc(-c2ccc(C(=O)O)cc2)c(C)[nH]1)C(C)C
7.08

----------
- System: mu opioid receptor (CHO-hMOR cell membranes) (Homo sapiens, UniProt P35372)
- Construct: purchased Receptor Biology, Inc. (Baltimore, Md.); host or cells: CHO cells (recombinant expression)
- Sequence (P35372 whole entry): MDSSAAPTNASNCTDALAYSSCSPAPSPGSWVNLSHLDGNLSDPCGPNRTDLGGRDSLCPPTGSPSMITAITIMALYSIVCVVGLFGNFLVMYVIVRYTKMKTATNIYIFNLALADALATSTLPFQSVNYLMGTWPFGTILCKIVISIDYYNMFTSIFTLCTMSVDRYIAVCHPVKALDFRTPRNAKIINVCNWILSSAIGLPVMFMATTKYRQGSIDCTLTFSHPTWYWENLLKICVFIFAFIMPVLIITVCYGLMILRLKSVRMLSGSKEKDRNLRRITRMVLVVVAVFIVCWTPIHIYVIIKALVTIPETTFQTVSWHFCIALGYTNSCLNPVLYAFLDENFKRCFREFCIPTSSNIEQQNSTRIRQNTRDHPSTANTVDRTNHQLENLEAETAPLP
- Assay name: Mu Opioid Receptor Functional Assay: [35S]GTPγS Binding in CHO-hMOR Cell Membranes, Versions 1 and 2
- Assay type: biochemical
- Experimental setup: version 1, basal binding = 100%
Readout kind: MOR GTP assay_v1 % of Basal (%)
Answers are plain numbers, in %.

Example entries and their recorded answers appear below.
Compound	System	Readout kind	Numeric result
Cc1cc(O)cc(C)c1C[C@H](N)C(=O)N(Cc1nc(-c2ccc3ccccc3c2)c(C)[nH]1)C(C)C [Cpd 150]	mu opioid receptor (CHO-hMOR cell membranes) (Homo sapiens, UniProt P35372)	MOR GTP assay_v1 % of Basal	476.63
Cc1cc(O)cc(C)c1C[C@H](N)C(=O)N(Cc1nc(-c2ccccc2F)c(C)[nH]1)C(C)C [Cpd 117]	mu opioid receptor (CHO-hMOR cell membranes) (Homo sapiens, UniProt P35372)	MOR GTP assay_v1 % of Basal	816.16
Cc1cc(O)cc(C)c1C[C@H](N)C(=O)N(Cc1nc(-c2ccc(Cl)cc2)c(C)[nH]1)C(C)C [Cpd 147]	mu opioid receptor (CHO-hMOR cell membranes) (Homo sapiens, UniProt P35372)	MOR GTP assay_v1 % of Basal	779.35
Cc1cc(O)cc(C)c1C[C@H](N)C(=O)N(Cc1nc(-c2cncnc2)c(C)[nH]1)C(C)C [Cpd 131]	mu opioid receptor (CHO-hMOR cell membranes) (Homo sapiens, UniProt P35372)	MOR GTP assay_v1 % of Basal	391.98
C[C@H](c1nc(-c2ccccc2)c[nH]1)N(C)C(=O)[C@@H](N)Cc1ccc(O)cc1 [Cpd 210]	mu opioid receptor (CHO-hMOR cell membranes) (Homo sapiens, UniProt P35372)	MOR GTP assay_v1 % of Basal	414.00
CC(C)N(C(=O)[C@@H](N)Cc1ccc(O)cc1)[C@@H](C)c1nc(-c2ccccc2)c[nH]1 [Cpd 225]	mu opioid receptor (CHO-hMOR cell membranes) (Homo sapiens, UniProt P35372)	MOR GTP assay_v1 % of Basal	657.00

// batch mode: one MOR GTP assay_v1 % of Basal value per listed entry
1. CCN(C(=O)[C@@H](N)Cc1c(C)cc(O)cc1C)[C@@H](C)c1nc(-c2ccccc2)c[nH]1 [Cpd 216]
2. Cc1cc(O)cc(C)c1C[C@H](N)C(=O)N(C)[C@H](C)c1nc(-c2ccccc2)c[nH]1 [Cpd 206]

[666.00, 446.00]

// batch mode: one MOR GTP assay_v1 % of Basal value per listed entry
1. Cc1cc(O)cc(C)c1C[C@H](N)C(=O)N(Cc1nc(-c2ccsc2)c(C)[nH]1)C(C)C [Cpd 146]
2. Cc1cc(O)cc(C)c1C[C@H](N)C(=O)N(Cc1nc(-c2ccccc2)c[nH]1)CC1CC1 [Cpd 192]
3. C[C@H](c1nc(-c2ccccc2)c[nH]1)N(Cc1ccccc1)C(=O)[C@@H](N)Cc1ccc(O)cc1 [Cpd 221]
4. Cc1cc(O)cc(C)c1C[C@H](N)C(=O)N(C)Cc1nc(-c2ccccc2)c[nH]1 [Cpd 199]
5. Cc1cc(O)cc(C)c1C[C@H](N)C(=O)N(C(C)C)[C@@H](Cc1cccc(C#N)c1)c1nc(-c2ccccc2)c[nH]1 [Cpd 122]
6. Cc1cc(O)cc(C)c1C[C@H](N)C(=O)N(C)[C@@H](C)c1nc(Cc2ccccc2)c[nH]1 [Cpd 205]
7. Cc1cc(O)cc(C)c1C[C@H](N)C(=O)N[C@@H](C)c1nc(-c2ccccc2)c[nH]1 [Cpd 209]

740.77
383.00
427.00
465.00
278.08
566.00
295.00

// batch mode: one MOR GTP assay_v1 % of Basal value per listed entry
1. Cc1cc(O)cc(C)c1C[C@H](N)C(=O)N(Cc1nc(-c2cccc(CO)c2)c(C)[nH]1)C(C)C [Cpd 130]
2. C[C@H](c1nc(-c2ccccc2)c[nH]1)N(C)C(=O)[C@@H](N)Cc1ccc(C(N)=O)cc1 [Cpd 203]
3. Cc1cc(C(N)=O)cc(C)c1C[C@H](N)C(=O)N(Cc1ccccc1)[C@@H](C)c1nc(-c2ccccc2)c[nH]1 [Cpd 114]

1: 866.39; 2: 331.00; 3: 717.59

// batch mode: one MOR GTP assay_v1 % of Basal value per listed entry
1. N[C@@H](Cc1ccc(O)cc1)C(=O)N(Cc1nc(-c2ccccc2)c[nH]1)CC1CC1 [Cpd 193]
2. Cc1cc(O)cc(C)c1C[C@H](N)C(=O)N[C@@H](Cc1cccc(C#N)c1)c1nc(-c2ccccc2)c[nH]1 [Cpd 173]
3. Cc1cc(O)cc(C)c1C[C@H](N)C(=O)N[C@@H](COCc1ccccc1)c1nc(-c2ccccc2)c[nH]1 [Cpd 175]
4. CC(C)N(Cc1nc(-c2ccccc2)c[nH]1)C(=O)[C@@H](N)Cc1ccc(O)cc1 [Cpd 195]
5. C[C@@H](c1nc(-c2ccccc2)c[nH]1)N(C)C(=O)[C@@H](N)Cc1ccc(C(N)=O)cc1 [Cpd 202]
6. Cc1cc(O)cc(C)c1C[C@H](N)C(=O)N(Cc1nc(-c2ccccc2)c[nH]1)C(C)CN(C)C (some centres unmarked) [Cpd 167]
7. Cc1cc(C(N)=O)cc(C)c1C[C@H](N)C(=O)N(C)[C@@H](C)c1nc(-c2ccccc2)c[nH]1 [Cpd 196]

182.00
147.00
471.00
378.00
529.00
780.00
620.00
